- Tested on: U-2932
- assay-method-text: MTT proliferation assay, 72 h
- Format: cell-based
- run-parameters: Homo sapiens, U2932, U-2932 (DLBCL), read-out: estimated IC50
readout-type: IC50 (nM)
Provide the reading as a plain figure in nM.

**Query** Identify measured IC50 associated with Cc1sc2c(c1C)C(c1ccc(Cl)cc1)=N[C@@H](CC(=O)Nc1ccc(O)cc1)c1nnc(C)n1-2
**Result** 255
